- measured_target: MERS-CoV S protein (Middle East respiratory syndrome-related coronavirus, UniProt K9N5Q8)
- Sequence (K9N5Q8 18-1353 limits assumed): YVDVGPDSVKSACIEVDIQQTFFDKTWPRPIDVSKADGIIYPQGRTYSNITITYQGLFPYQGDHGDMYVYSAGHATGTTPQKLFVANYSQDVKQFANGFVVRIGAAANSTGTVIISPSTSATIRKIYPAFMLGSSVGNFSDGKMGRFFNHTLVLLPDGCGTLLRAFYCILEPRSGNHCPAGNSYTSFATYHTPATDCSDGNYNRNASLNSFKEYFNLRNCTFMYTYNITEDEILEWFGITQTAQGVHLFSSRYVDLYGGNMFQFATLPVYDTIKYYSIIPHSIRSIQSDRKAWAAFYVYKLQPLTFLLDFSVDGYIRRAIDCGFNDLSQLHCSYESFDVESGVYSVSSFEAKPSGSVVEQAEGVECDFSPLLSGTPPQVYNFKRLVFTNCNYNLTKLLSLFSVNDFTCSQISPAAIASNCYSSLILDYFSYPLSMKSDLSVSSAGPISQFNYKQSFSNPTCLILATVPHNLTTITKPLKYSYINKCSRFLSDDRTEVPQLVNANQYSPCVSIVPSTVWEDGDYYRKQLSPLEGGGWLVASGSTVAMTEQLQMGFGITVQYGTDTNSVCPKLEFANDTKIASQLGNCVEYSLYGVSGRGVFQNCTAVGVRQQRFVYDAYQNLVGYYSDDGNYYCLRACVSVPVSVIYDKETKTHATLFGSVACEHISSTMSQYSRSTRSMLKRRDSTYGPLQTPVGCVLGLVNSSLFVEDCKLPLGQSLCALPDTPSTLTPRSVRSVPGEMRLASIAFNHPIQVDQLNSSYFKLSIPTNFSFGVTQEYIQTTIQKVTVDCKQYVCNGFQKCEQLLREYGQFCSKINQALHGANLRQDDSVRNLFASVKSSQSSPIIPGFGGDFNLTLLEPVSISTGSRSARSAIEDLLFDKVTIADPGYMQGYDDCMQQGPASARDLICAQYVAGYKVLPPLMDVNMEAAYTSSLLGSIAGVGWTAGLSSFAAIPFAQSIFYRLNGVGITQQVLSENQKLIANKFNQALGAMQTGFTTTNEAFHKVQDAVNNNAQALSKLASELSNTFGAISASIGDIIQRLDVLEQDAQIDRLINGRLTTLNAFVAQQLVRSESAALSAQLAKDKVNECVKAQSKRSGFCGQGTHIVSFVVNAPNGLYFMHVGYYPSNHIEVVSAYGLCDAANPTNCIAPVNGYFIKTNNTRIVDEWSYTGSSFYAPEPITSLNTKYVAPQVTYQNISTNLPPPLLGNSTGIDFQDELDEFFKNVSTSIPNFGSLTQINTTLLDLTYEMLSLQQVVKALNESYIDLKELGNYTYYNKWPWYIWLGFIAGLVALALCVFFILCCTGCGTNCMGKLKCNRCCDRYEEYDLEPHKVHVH
- assay_comment: cell-based
Positions of bridges follow the written chain, without caps; N, C: chain ends. No end group written: not given here.
assay_readout: IC50 (nM)
Numbers only, in nM.

Respond only with IC50 recorded for DCAWHLGELVWCTSLDQINVTFLDLEYEMKKLEEAIKKLEESYIDLKEL (disulfide 2-12) [IBP-EK1]
376

###

- measured_target: HCoV-OC43 S protein (Human coronavirus OC43)
- Sequence (P36334 14-1353): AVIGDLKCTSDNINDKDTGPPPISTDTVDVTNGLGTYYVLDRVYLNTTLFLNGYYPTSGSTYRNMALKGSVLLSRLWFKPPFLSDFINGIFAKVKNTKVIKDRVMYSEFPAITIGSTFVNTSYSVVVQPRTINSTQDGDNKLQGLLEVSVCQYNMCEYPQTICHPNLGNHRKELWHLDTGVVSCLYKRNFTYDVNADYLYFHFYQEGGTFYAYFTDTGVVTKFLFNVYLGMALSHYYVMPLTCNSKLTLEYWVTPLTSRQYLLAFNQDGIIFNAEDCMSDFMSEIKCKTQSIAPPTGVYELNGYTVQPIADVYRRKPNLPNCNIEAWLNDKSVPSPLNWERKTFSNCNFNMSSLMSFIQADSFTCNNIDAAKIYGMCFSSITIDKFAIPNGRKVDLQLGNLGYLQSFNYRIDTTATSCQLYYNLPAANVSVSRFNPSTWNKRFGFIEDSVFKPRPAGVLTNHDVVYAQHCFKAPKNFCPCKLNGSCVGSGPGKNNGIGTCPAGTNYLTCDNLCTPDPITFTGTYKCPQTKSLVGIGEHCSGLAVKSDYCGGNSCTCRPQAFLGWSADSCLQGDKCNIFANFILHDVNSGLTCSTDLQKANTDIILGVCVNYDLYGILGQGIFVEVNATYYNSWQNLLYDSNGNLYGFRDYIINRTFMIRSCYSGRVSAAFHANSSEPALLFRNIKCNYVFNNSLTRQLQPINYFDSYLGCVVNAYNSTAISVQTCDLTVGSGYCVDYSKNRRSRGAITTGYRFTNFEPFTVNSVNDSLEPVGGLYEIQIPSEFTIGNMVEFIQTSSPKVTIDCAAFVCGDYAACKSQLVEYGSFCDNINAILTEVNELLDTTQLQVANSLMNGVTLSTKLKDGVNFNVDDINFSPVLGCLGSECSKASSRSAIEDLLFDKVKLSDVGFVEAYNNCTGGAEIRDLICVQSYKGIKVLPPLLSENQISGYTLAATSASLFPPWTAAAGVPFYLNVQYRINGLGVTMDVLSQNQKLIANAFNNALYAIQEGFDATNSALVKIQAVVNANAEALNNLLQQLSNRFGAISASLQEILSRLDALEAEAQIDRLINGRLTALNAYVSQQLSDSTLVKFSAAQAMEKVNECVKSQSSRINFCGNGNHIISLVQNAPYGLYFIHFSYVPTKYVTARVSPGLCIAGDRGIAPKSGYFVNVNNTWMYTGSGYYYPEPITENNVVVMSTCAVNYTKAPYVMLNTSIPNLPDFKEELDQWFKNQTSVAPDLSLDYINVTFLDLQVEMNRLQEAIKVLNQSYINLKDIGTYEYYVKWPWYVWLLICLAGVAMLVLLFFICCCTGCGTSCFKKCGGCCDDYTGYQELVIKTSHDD
- assay_comment: cell-based
Positions of bridges follow the written chain, without caps; N, C: chain ends. No end group written: not given here.
assay_readout: pIC50
Numbers only, as −log10 of the molar value.

Check the records and state pIC50 for DCAWHLGELVWCTSLDQINVTFLDLEYEMKKLEEAIKKLEESYIDLKEL (disulfide 2-12) [IBP-EK1]
6.08

###

- measured_target: SARS-CoV-2 S protein (Severe acute respiratory syndrome coronavirus 2)
- assay_comment: cell-based
- condition_description: IC50 against Cell-Cell Fusion Mediated by S Proteins of CoVs
Positions of bridges follow the written chain, without caps; N, C: chain ends. No end group written: not given here.
assay_readout: pIC50
Give bare numbers, as −log10 of the molar value.

Hello, please tell me recorded pIC50 for this one: DCAWHLGELVWCTSLDQINVTFLDLEYEMKKLEEAIKKLEESYIDLKEL (disulfide 2-12) [IBP-EK1]
6.29

###

- System: Pseudotyped SARS-CoV-2
- condition_description: 48 h
Positions of bridges follow the written chain, without caps; N, C: chain ends. No end group written: not given here.
assay_readout: pIC50
Numbers only, as −log10 of the molar value.

Query pIC50 for DCAWHLGELVWCTSLDQINVTFLDLEYEMKKLEEAIKKLEESYIDLKEL (disulfide 2-12) [IBP-EK1]
6.74

###

- assay_comment: in vitro
- condition_description: human, Caco-2, Calu-3, RD and Huh-7 cells
Positions of bridges follow the written chain, without caps; N, C: chain ends. No end group written: not given here.
assay_readout: CC50 at 48 h

Return value of CC50 at 48 h for input DCAWHLGELVWCTSLDQINVTFLDLEYEMKKLEEAIKKLEESYIDLKEL (disulfide 2-12) [IBP-EK1] , no commentary.
> 100 µM

###

- assay_comment: in vivo
- condition_description: rhesus monkey, iv, 10 mg/kg
Positions of bridges follow the written chain, without caps; N, C: chain ends. No end group written: not given here.
assay_readout: level at 24 h

Specify reported level at 24 h for the sequence shown: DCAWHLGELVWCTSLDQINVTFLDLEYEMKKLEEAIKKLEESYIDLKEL (disulfide 2-12) [IBP-EK1]
~24000 ng/mL
